Data origin, for the record: patent US20190127480A1

Biological target: cynomolgus monkey CD3 expressed on monkey T-cells (PBMCs) (cynomolgus monkey, UniProt Q95LI5 22-198; Q95LI8 22-171)
Sequence (Q95LI5 22-198, chain 1 of 2): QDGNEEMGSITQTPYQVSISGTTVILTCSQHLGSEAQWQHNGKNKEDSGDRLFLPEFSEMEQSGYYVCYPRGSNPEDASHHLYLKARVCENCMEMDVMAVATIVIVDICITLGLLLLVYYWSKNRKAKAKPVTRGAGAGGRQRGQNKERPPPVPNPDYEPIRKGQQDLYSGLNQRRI
Sequence (Q95LI8 22-171, chain 2 of 2): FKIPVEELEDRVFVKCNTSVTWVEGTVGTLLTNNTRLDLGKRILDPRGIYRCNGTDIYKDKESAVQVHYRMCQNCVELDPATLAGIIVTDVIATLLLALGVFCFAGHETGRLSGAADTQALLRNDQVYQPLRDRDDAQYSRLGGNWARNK
Experiment: cell-based or functional assay
I'd be grateful if you could share measured EC50 [M] mfPBMC Proliferation for these entries.
One number for each entry, in M.

// solved cases for EC50 [M] mfPBMC Proliferation follow
[
  {
    "BINDER": "H1H5764P (antibody, human IgG1, V domains shown, H1H: human IgG1 Fc) VH: QVQLVESGGGVVQPGRSLRLSCAASGFTFRSFGMHWVRQAPGKGLEWVAVISYDGNYKYYADSVKGRFTISRDNSKNTLYLQMNSLRAEDTAVHYCAKGAMVRGVPYNFYYGMDVWGQGTTVTVSS VL: DIQMTQSPSSLSASVGDRVTITCRASQVIRNDLGWYQQKPGKAPKRLIYAASSLQSGIPSRFSGSGSGTEFTLTISSLQPEDFATYYCLQHNSYPYTFGQGTKLEIK",
    "UNIT_STRING": "M",
    "REPORTED": "4.06e-10"
  },
  {
    "BINDER": "H1H5771P (antibody, human IgG1, V domains shown) VH: EVQLVESGGGLVQPGRSLRLSCAASGFSFDNYAMHWVRQAPGQGLEWVSGISWNSGSRDYADSVKGRFTISRDNARNSLFLQMNSLSNEDTAMYYCAKDKSGYGSYFYGMDVWGQGTTVTVSS VL: EIVLTQSPGTLSLSPGDRATLSCRASQSIRNIYLAWYQQKPGQAPRLLIHGASTRATGIPDRFSGSGSGTDFTLTISRLEPEDFAVYYCQQRVSLPYTFGQGTKLEIK",
    "UNIT_STRING": "M",
    "REPORTED": "2.74e-12"
  },
  {
    "BINDER": "H1H5780P (antibody, human IgG1, V domains shown, H1H: human IgG1 Fc) VH: EVQLVESGGGLVQPGRSLRLSCAASGFTFDDYAMHWVRQAPGKGLEWVSGISWNGGSKDYADSVKGRFTISRDNTRNSLSLQMNSLRIEDTALYYCAKDKSGYGSFYYGLDVWGQGTTVTVSS VL: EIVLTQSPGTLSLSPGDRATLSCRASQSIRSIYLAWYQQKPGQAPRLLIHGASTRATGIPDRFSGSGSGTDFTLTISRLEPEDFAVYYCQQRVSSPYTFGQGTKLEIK",
    "UNIT_STRING": "M",
    "REPORTED": "3.13e-13"
  },
  {
    "BINDER": "H1H5761P (antibody, human IgG1, V domains shown) VH: QVQLVESGGGVVQPGRSLRLSCAASGFTFSSYGMHWVRQAPGKGLEWVAVISYDGSNKYYADSVKGRFTISRDYSKNTLYLQMNSLRAEDTAVFYCAKGAMVRGVPYNYYYGMDVWGQGTTVTVSS VL: DIQMTQSPSSLSASVGDRVTITCRASQGIRNDLGWFQQKPGKAPKRLIYAASSLQSGVPSRFSGSGSGTEFTLTISSLQPEDFATYYCLQHNSYPYTFGQGTKLEIK",
    "UNIT_STRING": "M",
    "REPORTED": "2.81e-09"
  }
]

Kindly review the next binder as well.
**Query** Recorded EC50 [M] mfPBMC Proliferation for H1H5772S (antibody, human IgG1, V domains shown, H1H: human IgG1 Fc; also called H1H5772P) VH: QVQLVESGGGLVQPGRSLRLSCAASGFSFDDYAMHWVRQAPGQGLEWVSGISWNGGSRDYADSVKGRFTISRDNARNSLFLQMNSLFTEDTALYYCAKDKSGYGSYFYGMDVWGQGTTVTVSS VL: EIVLTQSPGILSLSPGDRATLSCRASQSIRNIYLAWYQQKPGQAPRLLIHGASTRATGIPDRFSGSGSGTDFTLTISRLEPEDFAVYYCQQRVSSPYTFGQGTKLEIK , please?
**Result** 1.47e-12
